Every entry's value here was drawn from patent US8748575B2.

# assay_target: GC-C (Mus musculus)
# Construct: freshly prepared mouse intestine membranes; from tissue; host or cells: mouse intestine (membrane preparation)
# Sequence (Q3UWA6 20-1072): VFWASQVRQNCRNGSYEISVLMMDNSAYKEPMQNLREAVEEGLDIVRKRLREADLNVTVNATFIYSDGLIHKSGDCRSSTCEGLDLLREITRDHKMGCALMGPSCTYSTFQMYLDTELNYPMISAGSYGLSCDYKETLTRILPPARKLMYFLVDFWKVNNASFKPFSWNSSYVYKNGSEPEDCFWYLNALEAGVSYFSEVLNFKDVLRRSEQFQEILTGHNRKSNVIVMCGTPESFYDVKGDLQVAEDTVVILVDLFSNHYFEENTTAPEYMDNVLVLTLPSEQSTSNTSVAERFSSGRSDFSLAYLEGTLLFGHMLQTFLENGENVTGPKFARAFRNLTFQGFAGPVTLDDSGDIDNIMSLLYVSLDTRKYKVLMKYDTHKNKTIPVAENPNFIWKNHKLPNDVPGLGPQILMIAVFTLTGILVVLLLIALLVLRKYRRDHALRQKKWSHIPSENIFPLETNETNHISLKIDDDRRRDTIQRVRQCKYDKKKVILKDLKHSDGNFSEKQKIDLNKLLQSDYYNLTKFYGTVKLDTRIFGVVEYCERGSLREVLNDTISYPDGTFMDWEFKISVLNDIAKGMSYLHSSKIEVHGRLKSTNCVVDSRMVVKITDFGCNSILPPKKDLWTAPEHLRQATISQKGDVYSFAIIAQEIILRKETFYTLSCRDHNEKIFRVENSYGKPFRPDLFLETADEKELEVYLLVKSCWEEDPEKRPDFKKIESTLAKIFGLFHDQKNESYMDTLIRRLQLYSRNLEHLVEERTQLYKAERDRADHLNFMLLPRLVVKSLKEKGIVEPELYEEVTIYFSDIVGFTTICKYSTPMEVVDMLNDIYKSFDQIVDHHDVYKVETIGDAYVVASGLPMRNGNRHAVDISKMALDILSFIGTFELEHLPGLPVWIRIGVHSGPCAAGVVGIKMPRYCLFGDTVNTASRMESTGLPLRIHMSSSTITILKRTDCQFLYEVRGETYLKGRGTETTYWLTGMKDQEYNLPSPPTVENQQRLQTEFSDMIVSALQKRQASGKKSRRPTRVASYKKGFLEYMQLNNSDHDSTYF
# experiment_summary: Intestinal membrane 125I-STa competitive radioligand binding assay
# Design: key: 1+ (lowest activity/potency); ++: Results are graded from 1+ (lowest activity/potency) to 5+ (highest activity/potency); +++: Results are graded from 1+ (lowest activity/potency) to 5+ (highest activity/potency); ++++: Results are graded from 1+ (lowest activity/potency) to 5+ (highest activity/potency); +++++: 5+ (highest activity/potency)
# condition_details: graded activity/potency, mouse intestinal membranes
metric: I-125 binding assay

H2N Cys Cys Glu L-Thr Cys Cys Asn Pro Ala Cys Ala Gly Cys Tyr COOH (H-CCETCCNPACAGCY-OH; not fully specified (bridges); printed as Cys Cys Glu Thr Cys Cys Asn Pro Ala Cys Ala Gly Cys Tyr; cysteine pairing not given here) [Peptide B] = ++++
H2N Cys Cys Glu Leu Cys Cys Asn Thz Ala Cys Ala Gly Cys Tyr COOH (CCELCCNXACAGCY; not fully specified; non-natural residue Thz; Modified Amino Acid (8)..(8): Xaa8 = Thz = Thiazolidine (4-thiazolidine-2-carboxylic acid), Tzd) [Peptide D] = +++++
H2N Cys Cys Glu Leu Cys Cys Asn HyPro Ala Cys Ala Gly Cys Tyr COOH (CCELCCNXACAGCY; not fully specified; non-natural hydroxy residue; Modified Amino Acid (8)..(8): Xaa8 = HyPro = Hydroxy-Proline, Hyp, Hydroxyproline) [Peptide C] = ++
H2N Cys Cys Glu Leu Cys Cys Asn Dhp Ala Cys Ala Gly Cys Tyr COOH (CCELCCNXACAGCY; not fully specified; non-natural residue Dhp; Modified Amino Acid (8)..(8): Xaa8 = Dhp = 3,4,-dihydro-Proline, D-Pro 3,4-Dehydroproline) [Peptide A] = +++++
